Where these numbers come from: patent US20250136595A1

Assay target: phosphorylated ERBB2 (pERBB2) (Homo sapiens)
Construct: endogenous in cells
Sequence (P04626 23-1255): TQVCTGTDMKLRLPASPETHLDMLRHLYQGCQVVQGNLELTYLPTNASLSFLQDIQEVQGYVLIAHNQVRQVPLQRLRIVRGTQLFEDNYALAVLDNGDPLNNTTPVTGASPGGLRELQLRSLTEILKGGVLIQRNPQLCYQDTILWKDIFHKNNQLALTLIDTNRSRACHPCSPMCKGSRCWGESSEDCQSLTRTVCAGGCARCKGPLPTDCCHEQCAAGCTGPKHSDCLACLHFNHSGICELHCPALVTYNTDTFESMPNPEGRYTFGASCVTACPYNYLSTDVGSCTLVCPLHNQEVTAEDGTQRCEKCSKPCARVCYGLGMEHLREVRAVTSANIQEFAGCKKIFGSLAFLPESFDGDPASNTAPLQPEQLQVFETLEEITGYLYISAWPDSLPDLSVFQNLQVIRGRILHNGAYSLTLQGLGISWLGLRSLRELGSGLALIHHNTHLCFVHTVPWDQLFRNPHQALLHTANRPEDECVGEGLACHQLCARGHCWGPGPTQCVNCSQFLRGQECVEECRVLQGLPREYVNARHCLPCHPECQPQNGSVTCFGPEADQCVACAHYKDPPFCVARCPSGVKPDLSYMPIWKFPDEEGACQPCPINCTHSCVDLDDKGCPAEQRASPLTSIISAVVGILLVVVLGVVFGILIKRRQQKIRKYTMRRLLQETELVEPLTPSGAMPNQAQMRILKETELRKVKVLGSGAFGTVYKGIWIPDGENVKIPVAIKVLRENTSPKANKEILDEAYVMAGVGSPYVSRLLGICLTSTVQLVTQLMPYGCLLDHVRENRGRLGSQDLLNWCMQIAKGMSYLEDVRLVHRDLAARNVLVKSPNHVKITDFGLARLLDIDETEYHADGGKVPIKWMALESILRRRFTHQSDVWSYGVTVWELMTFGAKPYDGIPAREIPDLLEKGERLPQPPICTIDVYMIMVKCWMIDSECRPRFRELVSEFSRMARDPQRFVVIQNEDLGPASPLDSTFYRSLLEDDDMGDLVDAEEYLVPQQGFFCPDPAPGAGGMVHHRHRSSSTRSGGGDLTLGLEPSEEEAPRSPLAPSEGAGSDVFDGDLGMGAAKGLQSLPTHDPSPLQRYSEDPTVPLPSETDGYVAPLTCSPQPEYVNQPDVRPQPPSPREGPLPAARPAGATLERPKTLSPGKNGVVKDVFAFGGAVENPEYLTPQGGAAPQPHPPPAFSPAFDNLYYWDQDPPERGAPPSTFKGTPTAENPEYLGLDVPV
Measurement description: Detection of phosphorylated ERBB2 (pERBB2) by ELISA in BT-474 cells
Condition description: four hour incubation with compound
Known IC50 of a selection of molecules

[
  {
    "Chem smiles": "Cc1cc(Nc2ncnc3ccc(N4CCN(C(=O)/C=C/CN(C)C)CC4)nc23)ccc1Cc1ccn2ncnc2c1",
    "IC50, nM": 12.9
  },
  {
    "Chem smiles": "C=CC(=O)N1CCN(c2ccc3ncnc(Nc4ccc(Cc5ccn6ncnc6c5)c(C)c4)c3n2)[C@@H](C)C1",
    "IC50, nM": 18
  },
  {
    "Chem smiles": "C=CC(=O)N1CCN(c2ncc3ncnc(Nc4ccc(Cc5ccc6c(c5)ncn6C)c(C)c4)c3n2)[C@@H](C)C1",
    "IC50, nM": 73.4
  },
  {
    "Chem smiles": "CC#CC(=O)N1CCN(c2ccc3ncnc(Nc4ccc(O[C@@H]5CCCOC5)c(C)c4)c3n2)CC1",
    "IC50, nM": 334
  }
]
